Assay: NCI Yeast Anticancer Drug Screen. Data for the sgs1 mgt1 strain (AID 161);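 further: 0% = growth of cultures given vehicle only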
Details: S. cerevisiae sgs1 mgt1 strain, at 50.0 µM, stronger effect = higher value
About 79,000 compounds went through this panel and 15% of them were active in at least one assay; those are over-represented in the sample as a whole.
Listing of recorded growth inhibition by entry.
The reply should be a number in %, with the unit left off.

Example cases with answers are listed next.
CCCCCCCCCCS(=O)(=O)Nc1ccc(C(=O)NN)cc1
89.5
O=C(Nc1nc2ccc([N+](=O)[O-])cc2s1)C(=O)C(C1OC(=O)c2ccccc21)[N+](=O)[O-] (stereo not drawn)
88.9

API: the following record is the query input.
Ask: Find the measured growth inhibition of "c1ccc2c(c1)CCN2CCc1c[nH]c2ccccc12" and report it.
Reply: 89.8
